Assay: Metabolic stability in human liver microsomes (HLM)
Assay type: in vitro ADME
Conditions: both sexes, human, pooled human liver microsomes, pH 7.4, 0.50 mg protein per mL
READOUT_NAME: log10 microsomal CLint at 1 μM (log10 of the value in µL/min/mg)
Units before log transform: µL/min/mg; reported quantity: microsomal CLint at 1 μM; transform: log10.

Check out these entries, answers already filled in.
[[record]]
compound = "CCCN1C[C@H](C(=O)N2[C@@H](C)C[C@@H]2C)C=C2c3cccc4[nH]cc(c34)C[C@H]21 [Compound 4]"
test_result = 2.11

[[record]]
compound = "C=CCN1C[C@@H](C(=O)N[C@H](C)CC)C=C2c3cccc4[nH]cc(c34)C[C@H]21 [Compound 8a]"
test_result = 2.61

[[record]]
compound = "CCN(CC)C(=O)[C@@H]1C=C2c3cccc4[nH]cc(c34)C[C@H]2N(CCCF)C1 [Compound 2]"
test_result = 1.86

[[record]]
compound = "CCC[C@@H](C)NC(=O)[C@@H]1C=C2c3cccc4[nH]c(Br)c(c34)C[C@H]2N(C)C1 [Compound 45]"
test_result = 2.25

[[record]]
compound = "CCCN1C[C@H](C(=O)N2[C@@H](C)C[C@@H]2C)C=C2c3cccc4[nH]c(Br)c(c34)C[C@H]21 [Compound 47]"
test_result = 2.40

[[record]]
compound = "CN1C[C@H](C(=O)N(CCF)CCF)C=C2c3cccc4[nH]cc(c34)C[C@H]21 [Compound 38]"
test_result = 1.33


-- ask Item under review: CCC[C@@H](C)NC(=O)[C@@H]1C=C2c3cccc4[nH]cc(c34)C[C@H]2N(C)C1 [Int17] . Reported log10 microsomal CLint at 1 μM?
-- reply 1.94

-- ask Item under review: CCCN1C[C@H](C(=O)N[C@H](C)CC)C=C2c3cccc4[nH]cc(c34)C[C@H]21 [Compound 3] . Reported log10 microsomal CLint at 1 μM?
-- reply 2.52

-- ask Item under review: CCN(CC)C(=O)[C@@H]1C=C2c3cccc4[nH]cc(c34)C[C@H]2N(Cc2ccccc2O)C1 [Compound 16] . Reported log10 microsomal CLint at 1 μM?
-- reply 2.46

-- ask Item under review: CCCN1C[C@@H](C(=O)N[C@H](C)CC)C=C2c3cccc4[nH]cc(c34)C[C@H]21 [Compound 3a] . Reported log10 microsomal CLint at 1 μM?
-- reply 1.80

-- ask Item under review: CCN(CC)C(=O)[C@@H]1C=C2c3cccc4[nH]cc(c34)C[C@H]2N(C)C1 [LSD, lysergic acid diethylamide, reference compound] . Reported log10 microsomal CLint at 1 μM?
-- reply 1.29

###

Listed below: log10 of EC50 values for each entry.
Target: 5-HT2B receptor (Homo sapiens, UniProt P41595)
Construct: host or cells: HEK293
Sequence (P41595 whole entry): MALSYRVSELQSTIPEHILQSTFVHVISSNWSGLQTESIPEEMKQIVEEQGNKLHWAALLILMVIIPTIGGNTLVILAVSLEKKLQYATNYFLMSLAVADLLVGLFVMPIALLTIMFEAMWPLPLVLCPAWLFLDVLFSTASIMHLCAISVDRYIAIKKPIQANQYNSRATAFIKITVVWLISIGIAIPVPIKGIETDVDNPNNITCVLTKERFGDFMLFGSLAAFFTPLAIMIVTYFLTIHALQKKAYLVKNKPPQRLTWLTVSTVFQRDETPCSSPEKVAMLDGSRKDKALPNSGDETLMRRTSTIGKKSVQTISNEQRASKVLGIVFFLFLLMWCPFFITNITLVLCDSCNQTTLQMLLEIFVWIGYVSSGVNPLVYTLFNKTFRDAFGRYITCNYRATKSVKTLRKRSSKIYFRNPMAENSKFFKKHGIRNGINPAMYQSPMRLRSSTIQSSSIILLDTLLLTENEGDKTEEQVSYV
Test: cell-based
Conditions: Ca^2+ flux, agonist; read-out: 5-HT2B EC50
Units before log transform: nM; reported quantity: EC50; transform: log10.

Check out these entries, answers already filled in.
[[record]]
compound = "CC[C@@H](C)NC(=O)[C@H]1C=C2c3cccc4[nH]cc(c34)C[C@H]2N(CC)C1"
readout_name = "log10 of EC50"
test_result = 3.40

[[record]]
compound = "CN1C[C@H](C(=O)N2CCCC2)C=C2c3cccc4[nH]cc(c34)C[C@H]21"
readout_name = "log10 of EC50"
test_result = 1.74

[[record]]
compound = "C=CCN1C[C@@H](C(=O)N[C@H](C)CC)C=C2c3cccc4[nH]cc(c34)C[C@H]21"
readout_name = "log10 of EC50"
test_result = 3.56

[[record]]
compound = "CCCN1C[C@H](C(=O)N2[C@@H](C)C[C@@H]2C)C=C2c3cccc4[nH]cc(c34)C[C@H]21"
readout_name = "log10 of EC50"
test_result = 2.71

[[record]]
compound = "C[C@H]1C[C@H](C)N1C(=O)[C@@H]1C=C2c3cccc4[nH]cc(c34)C[C@H]2N(C)C1"
readout_name = "log10 of EC50"
test_result = 1.98


-- ask Form: Entry = `CCN(CC)C(=O)[C@@H]1C=C2c3cccc4[nH]cc(c34)C[C@H]2N(CCC(F)(F)F)C1` | System = 5-HT2B receptor (Homo sapiens, UniProt P41595) | log10 of EC50 = ____
-- reply 2.19

-- ask Form: Entry = CCN(CC)C(=O)[C@@H]1C=C2c3cccc4c3C(CN4)C[C@H]2N(C)C1 (mixture of isomers) | System = 5-HT2B receptor (Homo sapiens, UniProt P41595) | log10 of EC50 = ____
-- reply 2.67

-- ask Form: Entry = `C=CCN1C[C@H](C(=O)N2[C@@H](C)C[C@@H]2C)C=C2c3cccc4[nH]cc(c34)C[C@H]21` | System = 5-HT2B receptor (Homo sapiens, UniProt P41595) | log10 of EC50 = ____
-- reply 2.55
